# target under test: LecRK-I.8 (lectin receptor kinase-I.8, At5g60280) (Arabidopsis thaliana)
# Construct: extracellular lectin domain (amino acids 23 to 283) fused to GFP (eLecRK-I.8-GFP)
# Sequence (Q9LSR9 23-283): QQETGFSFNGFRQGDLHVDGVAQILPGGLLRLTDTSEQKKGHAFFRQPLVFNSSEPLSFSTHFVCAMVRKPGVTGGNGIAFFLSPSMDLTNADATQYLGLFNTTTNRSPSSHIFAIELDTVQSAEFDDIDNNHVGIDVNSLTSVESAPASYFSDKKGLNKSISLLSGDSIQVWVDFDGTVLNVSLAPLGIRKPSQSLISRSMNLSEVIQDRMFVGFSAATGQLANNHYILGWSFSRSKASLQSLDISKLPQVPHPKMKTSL
# measurement notes: […]-NAD+ radioligand saturation binding to immunoprecipitated eLecRK-I.8-GFP; also competition, and binding to recombinant MBP-eLecRK-I.[…]
readout: Kd (nM)
Enter your answer as a number in nM; do not include the unit.

// query Kd value for entry NC(=O)c1ccc[n+]([C@@H]2O[C@H](COP(=O)([O-])OP(=O)(O)OC[C@H]3O[C@@H](n4cnc5c(N)ncnc54)[C@H](O)[C@@H]3O)[C@@H](O)[C@H]2O)c1
// result 437
